Overview of recorded T/C for various compounds
- Tested on: P388 leukemia ip, CD2F1 mice, survival T/C
- experimental_details: NCI In Vivo Anticancer Drug Screen. Data for tumor model P388 Leukemia (intraperitoneal) in CD2F1 (CDF1) mice
- condition_summary: endpoint: median survival time; dose: 120.0 mg/kg/injection; schedule: Q01DX005 (ip); vehicle: saline with Tween-80; higher = longer survival
Inconclusive results and toxic doses are left out.
measured_attribute: T/C

>>> df
                                smiles_text    measured_value
0  COC(=O)C(=O)c1c(C(=O)OC)nc2nnc(N)n2c1-c1ccc(F)cc1   88 % of control
1  CN(C(=O)Nc1cccc2c(NC(=O)N(C)C3CCCCC3)cccc12)C1CCCCC1   87 % of control
2  Cc1cc2cc3c(c(C(=O)O)c2o1)C(=O)c1ccc2ccccc2c1C3  101 % of control
3  COc1ccc2cc(C(=O)c3cc4ccc(OC)cc4oc3=O)c(=O)oc2c1  101 % of control
4  Cc1cc(C)c2c(=O)c3c(oc2c1)O[C@@](C)(CO)C[C@@H]3c1ccccc1   98 % of control

----------
- System: P388 leukemia ip, CD2F1 mice, survival T/C
- experimental_details: NCI In Vivo Anticancer Drug Screen. Data for tumor model P388 Leukemia (intraperitoneal) in CD2F1 (CDF1) mice
- condition_summary: endpoint: median survival time; dose: 400.0 mg/kg/injection; schedule: Q04DX003 (ip); vehicle: saline with Tween-80; higher = longer survival
- Protocol: The antitumor activity of compounds was measured in mice bearing transplantable tumors. Survival or tumor size were measured and the results are expressed as the measurement made in the treated group (T) divided by the measurement made in the vehicle treated control group (C). The tumor model used in this assay is P388 Leukemia (intraperitoneal) in CD2F1 (CDF1) mice
Inconclusive results and toxic doses are left out.
Recorded T/C by entry
measured_attribute: T/C

In [3]: df
Out[3]:
                                smiles_text   measured_value
0  O=C(N/N=C/c1ccccc1O)C(O)(c1ccccc1)c1ccccc1  92 % of control
1  CN(C)N(P(c1ccccc1)c1ccccc1)P(c1ccccc1)c1ccccc1  94 % of control
2              CC(C)n1c(=S)[nH]c2ccccc2c1=O  91 % of control

----------
- Tested on: P388 leukemia ip, CD2F1 mice, survival T/C
- experimental_details: NCI In Vivo Anticancer Drug Screen. Data for tumor model P388 Leukemia (intraperitoneal) in CD2F1 (CDF1) mice
- condition_summary: endpoint: median survival time; dose: 50.0 mg/kg/injection; schedule: Q01DX009 (ip); vehicle: saline with Tween-80; higher = longer survival
Inconclusive results and toxic doses are left out.
measured_attribute: T/C

                                    compound                       experimental_target    measured_value
 0         O=c1[nH]c(CNCCO)nc2sc3c(c12)CCCC3  P388 leukemia ip, CD2F1 mice, survival T/C  100 % of control
 1                           Nc1cc(NC=O)ncn1  P388 leukemia ip, CD2F1 mice, survival T/C  105 % of control
 2          O=C1C(c2ccccc2)=S=C2Sc3ccccc3N12  P388 leukemia ip, CD2F1 mice, survival T/C  105 % of control
 3  COc1ccc(-c2cc(C(=O)O)c3cc4ccccc4cc3n2)cc1Br  P388 leukemia ip, CD2F1 mice, survival T/C   94 % of control
 4  CC(c1ccccc1)C1NC(=O)NC1=O (stereo not given)  P388 leukemia ip, CD2F1 mice, survival T/C  106 % of control
 5                             CNc1onc(C)c1C  P388 leukemia ip, CD2F1 mice, survival T/C  103 % of control
 6  CN1CCCC2C(c3ccccc3)C(C3=NCCCC3)C(c3ccccc3)CC21 (stereo not given)  P388 leukemia ip, CD2F1 mice, survival T/C  100 % of control
 7  O=C(Nc1nc2c(Cl)cccc2s1)C(F)(F)C(F)(F)C(F)(F)F (tested in a mixture with another compound)  P388 leukemia ip, CD2F1 mice, survival T/C  114 % of control
 8                 O=[N+]([O-])c1cccc2nsnc12  P388 leukemia ip, CD2F1 mice, survival T/C  107 % of control
 9           Cc1ccc(/C=N\N=C\c2ccc(C)cc2)cc1  P388 leukemia ip, CD2F1 mice, survival T/C  100 % of control
10      Cc1cc(Cl)ccc1N=Cc1ccc(OCc2ccccc2)cc1  P388 leukemia ip, CD2F1 mice, survival T/C   92 % of control
11  COc1ccc(-c2cc(-c3ccccc3)c(-c3ccccc3)nn2)cc1CN1CCOCC1  P388 leukemia ip, CD2F1 mice, survival T/C   99 % of control
12             C=C(C)CCOS(=O)(=O)c1ccc(C)cc1  P388 leukemia ip, CD2F1 mice, survival T/C  102 % of control
13         Cc1ccc(S(=O)(=O)N/N=C/c2cccs2)cc1  P388 leukemia ip, CD2F1 mice, survival T/C   95 % of control
14  CC(=O)C1CC2C=CC1N(C1=CC(=O)CC(C)(C)C1)C2=O (stereo not given)  P388 leukemia ip, CD2F1 mice, survival T/C  108 % of control
15                     Nc1ccc2c(c1)C(=O)CCC2  P388 leukemia ip, CD2F1 mice, survival T/C  103 % of control
16          O=[N+]([O-])c1ccc(SCN2CCCCC2)cc1  P388 leukemia ip, CD2F1 mice, survival T/C  104 % of control
17  COC(=O)Nc1nc2ccc(C(=O)c3ccc(F)cc3)cc2[nH]1  P388 leukemia ip, CD2F1 mice, survival T/C  180 % of control
18  CC1(C)CC2(C)OC2C2(C1)N=NC(=O)O2 (stereo not given)  P388 leukemia ip, CD2F1 mice, survival T/C   89 % of control
19  CCCc1cc(=O)[nH]c(Sc2c([N+](=O)[O-])ncn2C)n1  P388 leukemia ip, CD2F1 mice, survival T/C  103 % of control
20          CCOP(=S)(OCC)Oc1cc(C)nc(C(C)C)n1  P388 leukemia ip, CD2F1 mice, survival T/C  112 % of control
21     O=C(/C=C/c1ccc2c(c1)OCO2)c1ccc(Cl)cc1  P388 leukemia ip, CD2F1 mice, survival T/C   86 % of control
22  C(=NC12CC3CC(CC(C3)C1)C2)C12CC3CC(CC(C3)C1)C2  P388 leukemia ip, CD2F1 mice, survival T/C   99 % of control
23        O=C(Nc1ccc(Cl)c(Cl)c1)Sc1ccc(O)cc1  P388 leukemia ip, CD2F1 mice, survival T/C   96 % of control
24            CC(C)=CCc1cc(O)c(CC=C(C)C)cc1O  P388 leukemia ip, CD2F1 mice, survival T/C  106 % of control

----------
- Test system: P388 leukemia ip, CD2F1 mice, survival T/C
- experimental_details: NCI In Vivo Anticancer Drug Screen. Data for tumor model P388 Leukemia (intraperitoneal) in CD2F1 (CDF1) mice
- condition_summary: endpoint: median survival time; dose: 50.0 mg/kg/injection; schedule: Q01DX009 (ip); vehicle: saline with Tween-80
Inconclusive results and toxic doses are left out. The calls were made as follows: active = survival T/C of 150% or more; inactive = T/C below 125% in these data.
Outcome codes: T = active, F = inactive

compound	experimental_target	assigned_label
COc1cc(NC(C)CCCN)c2ncccc2c1Oc1ccc(Cl)cc1 (centres undefined)	P388 leukemia ip, CD2F1 mice, survival T/C	F
CNC(=O)NC1NC(=O)N(C)C1=O (centres undefined)	P388 leukemia ip, CD2F1 mice, survival T/C	F
COC1/C=C/OC2(C)Oc3c(C)c(O)c4c(O)c(c(/C=N/N5C(C)CN(Cc6ccc(O)cc6)CC5C)c(O)c4c3C2=O)NC(=O)C(C)=C/C=C/C(C)C(O)C(C)C(O)C(C)C(OC(C)=O)C1C (centres undefined)	P388 leukemia ip, CD2F1 mice, survival T/C	F
c1ccc2cc3c(ccc4ccccc43)cc2c1	P388 leukemia ip, CD2F1 mice, survival T/C	F
O=C(OCC(Cl)(Cl)Cl)N1CCCCC1	P388 leukemia ip, CD2F1 mice, survival T/C	F
COc1cc(OC)c(NC(=O)Nc2cc(Cl)ccc2Cl)cc1Cl	P388 leukemia ip, CD2F1 mice, survival T/C	F
COC(=O)c1[nH]c(=O)c2ccc([N+](=O)[O-])cc2c1O	P388 leukemia ip, CD2F1 mice, survival T/C	F
CN1N=Cc2sc(Br)c(Br)c2B1O	P388 leukemia ip, CD2F1 mice, survival T/C	F
CC(=Nc1ccccc1)Nc1ccccc1.[Cu+2]	P388 leukemia ip, CD2F1 mice, survival T/C	F
CCOC(=O)C(Cc1ccc(N(CCCl)CCCl)cc1)NC=O (centres undefined)	P388 leukemia ip, CD2F1 mice, survival T/C	T
CC1=NN(C(=O)c2ccncc2)C(=O)C1N=Nc1ccc(S(N)(=O)=O)cc1 (centres undefined)	P388 leukemia ip, CD2F1 mice, survival T/C	F
COc1ccc2c(c1OC)C(C(Cl)(Cl)Cl)N1CCc3cc4c(cc3C1=C2)OCO4 (centres undefined)	P388 leukemia ip, CD2F1 mice, survival T/C	F
COc1ccc(S(=O)(=O)OCCCl)cc1	P388 leukemia ip, CD2F1 mice, survival T/C	F
CC(C)(C)N=C(CCSc1ccccc1)Nc1ccccc1Cl	P388 leukemia ip, CD2F1 mice, survival T/C	F
NC(=O)C1=Cc2cc(Cl)ccc2OC1	P388 leukemia ip, CD2F1 mice, survival T/C	F
NNc1ncnc2c1ncn2C1OC(CO)C(O)C1O (centres undefined)	P388 leukemia ip, CD2F1 mice, survival T/C	F
COc1ccc(/C=C2\C(=O)N(Cc3ccco3)SC2=S)c(OC)c1OC	P388 leukemia ip, CD2F1 mice, survival T/C	F
Nc1ncnc2c1c(C(=O)O)cn2C1OC(CO)C(O)C1O (centres undefined)	P388 leukemia ip, CD2F1 mice, survival T/C	F
[N-]=[N+]=NC(=O)c1cccs1	P388 leukemia ip, CD2F1 mice, survival T/C	F
O=C(C[n+]1ccccc1)N/N=C/c1cccc([N+](=O)[O-])c1	P388 leukemia ip, CD2F1 mice, survival T/C	F
C[CH2][Ge]([CH2]C)[CH2]/C(C)=C(/C)[CH2][Ge]([CH2]C)[CH2]C	P388 leukemia ip, CD2F1 mice, survival T/C	F
CCOC(CN=Cc1cc(C)c2sc3ccccc3c2c1C)OCC	P388 leukemia ip, CD2F1 mice, survival T/C	F
O=C(O)/C=C/c1csc(-c2ccc(Cl)cc2)n1	P388 leukemia ip, CD2F1 mice, survival T/C	F
COC(C(OC)N1CCOCC1)N1CCOCC1 (centres undefined)	P388 leukemia ip, CD2F1 mice, survival T/C	F
